# assayed target: NTRK1 (Homo sapiens, UniProt P04629)
# Construct: made in house
# Sequence (P04629 33-796): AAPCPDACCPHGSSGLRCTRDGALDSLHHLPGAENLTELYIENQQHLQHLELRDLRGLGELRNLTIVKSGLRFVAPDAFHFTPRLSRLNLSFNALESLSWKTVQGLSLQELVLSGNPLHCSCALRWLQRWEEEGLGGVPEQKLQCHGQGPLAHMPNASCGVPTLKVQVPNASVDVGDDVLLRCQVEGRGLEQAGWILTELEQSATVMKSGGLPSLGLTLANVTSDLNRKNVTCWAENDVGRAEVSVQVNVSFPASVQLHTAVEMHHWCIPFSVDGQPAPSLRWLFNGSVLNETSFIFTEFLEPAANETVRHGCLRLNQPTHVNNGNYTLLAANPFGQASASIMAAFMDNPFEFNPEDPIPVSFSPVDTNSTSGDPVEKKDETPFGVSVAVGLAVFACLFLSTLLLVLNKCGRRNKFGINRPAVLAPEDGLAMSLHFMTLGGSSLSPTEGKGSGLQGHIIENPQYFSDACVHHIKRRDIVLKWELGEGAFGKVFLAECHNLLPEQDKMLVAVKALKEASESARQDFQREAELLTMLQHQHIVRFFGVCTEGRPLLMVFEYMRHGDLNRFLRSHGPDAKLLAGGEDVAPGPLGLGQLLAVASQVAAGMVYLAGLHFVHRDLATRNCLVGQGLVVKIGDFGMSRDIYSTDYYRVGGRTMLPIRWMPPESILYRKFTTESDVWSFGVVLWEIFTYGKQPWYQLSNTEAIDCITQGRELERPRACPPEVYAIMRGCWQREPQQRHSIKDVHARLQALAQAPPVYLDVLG
# test protocol: Kinase inhibition test (DNA-tagged kinase, affinity resin, qPCR readout)
# Assay type: binding
# Set-up: key: (−) indicates no effect; (+) indicates weak inhibitory activity; (++) indicates a moderate level of inhibitory activity; (+++) indicates strong inhibitory activity
# experimental context: 1 μM of compound
value kind: NTRK1 inhibitory activity

compound | result
Nc1ncnc2c1c(C#CC1CC1)cn2[C@@H]1S[C@H](CO)[C@@H](O)[C@H]1O | ++
Nc1ncnc2c1c(-c1ccccc1)cn2[C@@H]1S[C@H](CO)[C@@H](O)[C@H]1O | ++
C#Cc1cn([C@@H]2SC(=C)[C@@H](O)[C@H]2O)c2ncnc(N)c12 [Compound 12b] | +++
N#Cc1cn([C@@H]2S[C@H](CNC(N)=O)[C@@H](O)[C@H]2O)c2ncnc(N)c12 | ++
CC(C)(C)C#Cc1cn([C@@H]2S[C@H](CO)[C@@H](O)[C@H]2O)c2ncnc(N)c12 | +
N#Cc1cn([C@@H]2S[C@H](CN=[N+]=[N-])[C@@H](O)[C@H]2O)c2ncnc(N)c12 | +++
CCC#Cc1cn([C@@H]2S[C@H](CO)[C@@H](O)[C@H]2O)c2ncnc(N)c12 | +
C#Cc1cn([C@@H]2S[C@H](COC(=O)c3ccc(Cl)cc3)[C@@H](O)[C@H]2O)c2ncnc(N)c12 | ++

* * *

# assayed target: NTRK1 (Homo sapiens, UniProt P04629)
# Construct: made in house
# test protocol: Kinase inhibition test (DNA-tagged kinase, affinity resin, qPCR readout)
# Format: binding
# Parameters: key: (−) indicates no effect; (+) indicates weak inhibitory activity; (++) indicates a moderate level of inhibitory activity; (+++) indicates strong inhibitory activity
# experimental context: 1 μM of compound

compound | NTRK1 inhibitory activity
N#Cc1cn([C@@H]2SC[C@@H](O)[C@H]2O)c2ncnc(N)c12 [Compound 13f] | ++
NC(=O)c1cn([C@@H]2S[C@H](CO)[C@@H](O)[C@H]2O)c2ncnc(N)c12 | +
Nc1ncnc2c1c(-c1ccco1)cn2[C@@H]1S[C@H](CO)[C@@H](O)[C@H]1O | +++
Nc1ncnc2c1c(-c1ccccc1)cn2[C@@H]1SC[C@@H](O)[C@H]1O [Compound 13d] | ++
C#Cc1cn([C@@H]2S[C@H](CO)[C@@H](O)[C@H]2O)c2nc(Cl)nc(N)c12 | ++
C=Cc1cn([C@@H]2SC[C@@H](O)[C@H]2O)c2ncnc(N)c12 [Compound 13e] | ++
C#Cc1cn([C@@H]2S[C@H](COC(=O)c3ccccc3)[C@@H](O)[C@H]2O)c2ncnc(N)c12 | +++
N#Cc1cn([C@@H]2S[C@H](COC(=O)c3ccccc3)[C@@H](O)[C@H]2O)c2ncnc(N)c12 | ++
Nc1ncnc2c1c(-c1ccco1)cn2[C@@H]1SC[C@@H](O)[C@H]1O [Compound 13b] | ++
C#Cc1cn([C@@H]2S[C@H](CNC(=O)c3ccc(OC)cc3)[C@@H](O)[C@H]2O)c2ncnc(N)c12 | +++
C#Cc1cn([C@@H]2S[C@H](COC(=O)c3ccncc3)[C@@H](O)[C@H]2O)c2ncnc(N)c12 | +++
Nc1ncnc2c1c(-c1ccco1)cn2[C@@H]1S[C@H](COC(=O)c2ccccc2)[C@@H](O)[C@H]1O | +++
NC(=O)c1cn([C@@H]2SC[C@@H](O)[C@H]2O)c2ncnc(N)c12 [Compound 13g] | +++
Nc1ncnc2c1c(-c1cccs1)cn2[C@@H]1S[C@H](CO)[C@@H](O)[C@H]1O | +++
[N-]=[N+]=NC[C@H]1S[C@@H](n2cc(C(N)=O)c3c(N)ncnc32)[C@H](O)[C@@H]1O | +++

* * *

# System: A549 (lung cancer cells)
# test protocol: Inhibitory activity against cancer cells (sulforhodamine B staining)
# Type: cell-based
# experimental context: Homo sapiens, 72 h, 3 days, SRB staining
pIC50: −log10 of the molar value.
Param threshold (6) applies to pIC50; output condition met when value >= threshold, condition not met when value < threshold.

compound | label value
NC(=O)c1cn([C@@H]2S[C@H](CO)[C@@H](O)[C@H]2O)c2ncnc(N)c12 | condition not met
C#Cc1cn([C@@H]2S[C@H](CO)[C@@H](O)[C@H]2O)c2nc(Cl)nc(N)c12 | condition met
N#Cc1cn([C@@H]2S[C@H](CO)[C@@H](O)[C@H]2O)c2ncnc(N)c12 | condition not met
C#Cc1cn([C@@H]2S[C@H](CN3CCOCC3)[C@@H](O)[C@H]2O)c2ncnc(N)c12 [Compound 12a] | condition not met
C#Cc1cn([C@@H]2SC(=C)[C@@H](O)[C@H]2O)c2ncnc(N)c12 [Compound 12b] | condition met
C#Cc1cn([C@@H]2S[C@H](CO)[C@@H](O)[C@H]2O)c2ncnc(N)c12 | condition met
C#Cc1cn([C@@H]2S[C@H](CNCC)[C@@H](O)[C@H]2O)c2ncnc(N)c12 [Compound 11b] | condition not met

* * *

# Test system: SNU638 (stomach cancer cells)
# test protocol: Inhibitory activity against cancer cells (sulforhodamine B staining)
# Assay type: cell-based
# experimental context: 3 days, SRB staining
Measured log10 IC50 of individual entries
value kind: log10 IC50 (log10 of the value in µM)

molecule | numeric result
N#Cc1cn([C@@H]2S[C@H](CNC(N)=O)[C@@H](O)[C@H]2O)c2ncnc(N)c12 [Compound 11aii] | 0.83
Nc1ncnc2c1c(-c1ccco1)cn2[C@@H]1S[C@H](COC(=O)c2ccccc2)[C@@H](O)[C@H]1O [Compound 7a] | 0.55
NC[C@H]1S[C@@H](n2cc(C(N)=O)c3c(N)ncnc32)[C@H](O)[C@@H]1O [Compound 10c] | 0.41
Nc1ncnc2c1c(-c1ccco1)cn2[C@@H]1SC[C@@H](O)[C@H]1O [Compound 13b] | 0.12
C#Cc1cn([C@@H]2S[C@H](COC(=O)c3ccc(OC)cc3)[C@@H](O)[C@H]2O)c2ncnc(N)c12 [Compound 7d] | -0.72
C#Cc1cn([C@@H]2S[C@H](CN)[C@@H](O)[C@H]2O)c2ncnc(N)c12 [Compound 10a] | 0.12
C#Cc1cn([C@@H]2S[C@H](CNC(=O)c3ccccc3)[C@@H](O)[C@H]2O)c2ncnc(N)c12 [Compound 8b] | 1.37
C#Cc1cn([C@@H]2S[C@H](COC(=O)c3ccccc3)[C@@H](O)[C@H]2O)c2ncnc(N)c12 [Compound 7b] | 0.12
NC(=O)NC[C@H]1S[C@@H](n2cc(C(N)=O)c3c(N)ncnc32)[C@H](O)[C@@H]1O [Compound 11aiii] | 0.75
N#Cc1cn([C@@H]2S[C@H](COC(=O)c3ccccc3)[C@@H](O)[C@H]2O)c2ncnc(N)c12 [Compound 7g] | 0.58
Nc1ncnc2c1c(-c1ccccc1)cn2[C@@H]1SC[C@@H](O)[C@H]1O [Compound 13d] | 0.75
C#Cc1cn([C@@H]2SC[C@@H](O)[C@H]2O)c2ncnc(N)c12 [Compound 13a] | 0.08
C#Cc1cn([C@@H]2S[C@H](CNC(=O)c3ccc(OC)cc3)[C@@H](O)[C@H]2O)c2ncnc(N)c12 [Compound 8c] | 1.09

* * *

# Tested on: SNU638 (stomach cancer cells)
# test protocol: Inhibitory activity against cancer cells (sulforhodamine B staining)
# Format: cell-based
# experimental context: Homo sapiens, SNU-638, 72 h, 3 days, SRB staining

compound | IC50 / µM
C#Cc1cn([C@@H]2S[C@H](CN3CCOCC3)[C@@H](O)[C@H]2O)c2ncnc(N)c12 [Compound 12a] | 9.7
C#Cc1cn([C@@H]2SC(=C)[C@@H](O)[C@H]2O)c2ncnc(N)c12 [Compound 12b] | 0.62
N#Cc1cn([C@@H]2S[C@H](CO)[C@@H](O)[C@H]2O)c2ncnc(N)c12 [Compound 5] | 1.22
C#Cc1cn([C@@H]2S[C@H](CNCC)[C@@H](O)[C@H]2O)c2ncnc(N)c12 [Compound 11b] | 10.8
NC(=O)c1cn([C@@H]2S[C@H](CO)[C@@H](O)[C@H]2O)c2ncnc(N)c12 [Compound 6] | 1.13
C#Cc1cn([C@@H]2S[C@H](CO)[C@@H](O)[C@H]2O)c2nc(Cl)nc(N)c12 [Compound 14] | 5.46
C#Cc1cn([C@@H]2S[C@H](CO)[C@@H](O)[C@H]2O)c2ncnc(N)c12 [Compound 3] | 0.03

* * *

Measured pIC50 of individual entries
# Test system: PC-3 (prostate cancer cells)
# test protocol: Inhibitory activity against cancer cells (sulforhodamine B staining)
# Format: cell-based
# experimental context: 3 days, SRB staining
pIC50: −log10 of the molar value.

molecule | censor symbol | pIC50
Nc1ncnc2c1c(-c1ccccc1)cn2[C@@H]1S[C@H](CO)[C@@H](O)[C@H]1O | = | 5.04
NC(=O)NC[C@H]1S[C@@H](n2cc(C(N)=O)c3c(N)ncnc32)[C@H](O)[C@@H]1O | = | 5.55
[N-]=[N+]=NC[C@H]1S[C@@H](n2cc(C(N)=O)c3c(N)ncnc32)[C@H](O)[C@@H]1O | = | 6.44
N#Cc1cn([C@@H]2S[C@H](CNC(=O)c3ccccc3)[C@@H](O)[C@H]2O)c2ncnc(N)c12 | = | 5.18
Nc1ncnc2c1c(C#CC1CC1)cn2[C@@H]1S[C@H](CO)[C@@H](O)[C@H]1O | < | 4.30
Nc1ncnc2c1c(-c1cccs1)cn2[C@@H]1SC[C@@H](O)[C@H]1O [Compound 13c] | = | 5.15
C#Cc1cn([C@@H]2S[C@H](COC(=O)c3ccc(OC)cc3)[C@@H](O)[C@H]2O)c2ncnc(N)c12 | = | 6.48
C#Cc1cn([C@@H]2S[C@H](COC(=O)c3ccc(Cl)cc3)[C@@H](O)[C@H]2O)c2ncnc(N)c12 | = | 6.64
Nc1ncnc2c1c(-c1ccccc1)cn2[C@@H]1SC[C@@H](O)[C@H]1O [Compound 13d] | = | 5.00
N#Cc1cn([C@@H]2S[C@H](COC(=O)c3ccccc3)[C@@H](O)[C@H]2O)c2ncnc(N)c12 | = | 5.53
NC(=O)c1cn([C@@H]2SC[C@@H](O)[C@H]2O)c2ncnc(N)c12 [Compound 13g] | = | 5.65
CCC#Cc1cn([C@@H]2S[C@H](CO)[C@@H](O)[C@H]2O)c2ncnc(N)c12 | < | 4.30
N#Cc1cn([C@@H]2S[C@H](CNC(N)=O)[C@@H](O)[C@H]2O)c2ncnc(N)c12 | = | 5.45
Nc1ncnc2c1c(-c1ccco1)cn2[C@@H]1SC[C@@H](O)[C@H]1O [Compound 13b] | = | 5.76
N#Cc1cn([C@@H]2SC[C@@H](O)[C@H]2O)c2ncnc(N)c12 [Compound 13f] | = | 5.61
